B1: tRNA (parent)
chain: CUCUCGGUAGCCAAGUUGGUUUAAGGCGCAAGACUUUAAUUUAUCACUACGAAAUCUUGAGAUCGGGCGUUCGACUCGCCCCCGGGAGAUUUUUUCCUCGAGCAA

Variants of: B1
measurement-notes: nonsense suppression (GFP-seq) (ratio to wild type); higher = more function; SUP4oc tRNA, yeast GFP reporter sort-seq
This sample holds only a part of the variants without activity.
nonsense suppression: recorded values

Looking up CUCUCGGUAGCCUAGUUGGUUUAAGGCGCAAGACUUUAAUUUAUCACUACGAAAUCUUGAGAUCGGGCGUUCGACUCGCCACCGGGAGAUUUUUUCCUCGAGCAA [A13U C81A] , I see its nonsense suppression listed as ≤ 0.026

Looking up CCCUCGGUAGCCAAGUUGGUUUAAGGCGCAAGACUUUAAUUUAUCACUACGAAAUCUUGAGAUCGGGCGUUCGACUCGCCCCCGGGAGUUUUUUUCCUCGAGCAA [U2C A89U] , I see its nonsense suppression listed as ≤ 0.026

Looking up CUCUCGGUAGGUAAGUUGGUUUAAGGCGCAAGACUUUAAUUUAUCACUACGAAAUCUUGACAUCGGGCGUUCGACUCGCCCCCGGGAGAUUUUUUCCUCGAGCAA [C11G C12U G61C] , I see its nonsense suppression listed as ≤ 0.026

Looking up CUCUCGGUAGCCAAGUUGGUUUAAGGCGCAAGACUUUAAUUUAUCACUACGAAAUCUUGAGAUCGGGCGUCGGACUCGCCCCCGGGAGAUUUUUUCCUCGAGCAA [U71C C72G] , I see its nonsense suppression listed as ≤ 0.026

Looking up CUCUCGGUAGCCAAGUUGGUUUAAGGCGCAAGAUUUUAAUUUAUCACUACGAAAUCUUGAGAUCGGGCGAUCGACUCGCCCCCGGGAGAUUUUUUCCUCGAGCAA [C34U U70A] , I see its nonsense suppression listed as ≤ 0.026

Looking up CUCUCGGUAGCCAAGUUGCUCUAAGGCGCAAGACUUUAAUUUAUCACUACGAAAUCUUGAGAUCGGGCGUUCGACUCGCCCCCGGGAGAUUUUUUCCUCGAGCAA [G19C U21C] , I see its nonsense suppression listed as ≤ 0.026

More entries:
Looking up CUCUCGGUAGCCAAGUUGGCUUAAGGCGCAAGACUUUAAUUUAUCACUACGAAAUCCGGACAUCGGGCGUUCGACUCGCCCCCGGGAGAUUUUUUCCUCGAGCAA [U20C U57C U58G G61C] , I see its nonsense suppression listed as ≤ 0.026

Looking up CUCUCGGUAGCCAAGUUGGUUUCAAGCGCAAGACUUUAAUUUAUCACUACGAAAUCUUGAGAUCGGGCGUUCGACUCGCCCCCGGGAGAUUUUUUCCUCGAGCAA [A23C G25A] , I see its nonsense suppression listed as ≤ 0.026

Looking up CUCUCGGUAGCCAAGUUGGUUUAAAGCGCCAGACUUUAAUUUAUCACUACGAAAUCUUGAGAUCGGGCGUUCGACUCGCCCCCGGGAGAUUUUUUCCUCGAGCAA [G25A A30C] , I see its nonsense suppression listed as ≤ 0.026

Looking up CUCUCGGUAGCCAAGUUGGUUUAAUGCGCAAGACUUUAAUUUAUCACUACGAAAUAUUGAGAUCGGGCGUUCGACUCGCCCCCGGUAGAUUUUUUCCUCGAGCAA [G25U C56A G86U] , I see its nonsense suppression listed as ≤ 0.026

Looking up CUCUAGUUAGCCAAGUCGGUUUAAGGCGCAAGACUUUAAUUUAUCACUACGAAAUCUUGAGAUCGGGCGUUCGACUCGCCCCCGGGAGAUUUUUUCCUCGAGCAA [C5A G7U U17C] , I see its nonsense suppression listed as ≤ 0.026

Values compiled from the RNAGym collection of RNA variant scans (doi:10.1101/gad.245936.114).
